- Tested on: SF-268
- assay: NCI tumour cell line growth inhibition, 48 h
Activity calls are given as the source filed them. No stated cut-off is given here; in the data, active = GI50 up to about 1.1 µM and inactive = higher.
A correct response names exactly one class from active, inactive

For orientation, consider the following solved cases.
molecule	class name
CC(=O)OC1CC[C@@]2(C)C(CC[C@]3(C)C2CC=C2[C@@H]4C(C)[C@H](C)CCC4(C)CCC23C)[C@@]1(C)C(=O)O (stereo not given in full)	inactive
Cn1c2ccccc2c(=S)c2cc(NC(=O)CCCCC(=O)Nc3ccc4c(c3)c(=S)c3ccccc3n4C)ccc21	inactive
COc1cc(C2SC(=N)Nc3c2c(C)nn3C(=O)c2ccc(Cl)cc2)ccc1O (stereo not given)	inactive

Now look at this entry.
Enquiry: In this assay, the call recorded for CCOP(=O)(OCC)/C(=C\n1c(=S)[nH]c2cc(C)ccc21)C(=O)OC was what?
Return: inactive

----------
- System: NCI-H460
- assay: NCI tumour cell line growth inhibition, 48 h
The source made the active and inactive calls. Rule as the data show it: active = GI50 up to about 1.1 µM and inactive = higher.
A correct response names exactly one class from true (1) (active), false (0) (inactive)

For orientation, consider the following solved cases.
compound	test system	class name
O=[N+]([O-])c1cnn(C2=CNc3ccccc3N=C2)c1	NCI-H460	false (0)
CC(C)(O)C(O)COc1c2c(cc3oc(=O)ccc13)OCO2 (stereo unspecified)	NCI-H460	false (0)

Enquiry: In this assay, the call recorded for O=C1c2ccccc2C(=O)c2c(O)c(NCCCNCCO)cc(O)c21 was what?
Return: false (0)

Enquiry: In this assay, the call recorded for Nc1n/c(=N\c2ccccc2)ss1 was what?
Return: false (0)

Enquiry: In this assay, the call recorded for CC1(C)OCC(C2OC(OC(=O)c3ccc([N+](=O)[O-])cc3)C3OC(C)(C)OC23)O1 (stereo unspecified) was what?
Return: false (0)

Enquiry: In this assay, the call recorded for COc1cc(OC)c2c(O)c3c(cc2c1)CC(C)(C)CC3=O was what?
Return: false (0)

Enquiry: In this assay, the call recorded for CC(C)(C)CC(C)(C)NCC(O)COc1ccc(C(C)(C)c2ccc(OCC(O)CNC(C)(C)CC(C)(C)C)cc2)cc1 (stereo unspecified) was what?
Return: true (1)

----------
- Test system: K562
- assay: NCI tumour cell line growth inhibition, 48 h
Activity calls are given as the source filed them. Cut-off read from the data, not from the text of the source: active = GI50 up to about 1.1 µM and inactive = higher.
Assign GI50 to each entry below.

These solved cases illustrate the format of a correct answer.
compound	value observed
CN(C)c1ccc(/C=N/c2ccc(-c3nc4ccccc4[nH]3)cc2)cc1	35 µM (inactive)
CC/C=C/c1cc2cc[nH]c2c2c1C(C)C[C@@H]2C (stereo not given in full)	25.1 µM (inactive)

Batch request: GI50 for each of the following compounds.
1. O=C(O)CN(CC(=O)O)c1ccccc1
2. CN(CCNC(=O)c1n[nH]c2c1Cc1ccccc1-2)CCNC(=O)c1n[nH]c2c1Cc1ccccc1-2
3. COC(=O)N/N=C(\C(=O)Nc1cccc([N+](=O)[O-])c1)c1nc2ccc([N+](=O)[O-])cc2nc1O

Return:
35 µM (inactive)
18 µM (inactive)
11.4 µM (inactive)

----------
- Test system: SK-OV-3
- assay: NCI tumour cell line growth inhibition, 48 h
Activity calls are given as the source filed them. Rule as the data show it: active = GI50 up to about 1.1 µM and inactive = higher.
Assign GI50 to each entry below.

These solved cases illustrate the format of a correct answer.
compound	value observed
COc1cc(C2SC(=N)Nc3c2c(C)nn3C(=O)c2ccc(Cl)cc2)ccc1O (stereo unspecified)	> 10 µM (inactive)
COc1ccc(CC2OC3(CCCCC3)CC3CCCCN32)cc1 (stereo unspecified)	> 100 µM (inactive)
O=c1c(-c2ccccc2Cl)coc2cc(F)ccc12	45.2 µM (inactive)
Cc1c2c(cc[n+]1C)O[B-](c1ccccc1)(c1ccccc1)O2	94 µM (inactive)
Nc1ccccc1.O=C(O)C(C(F)(F)F)C(F)(F)F	> 100 µM (inactive)

Batch request: GI50 for each of the following compounds.
1. CCOC(=O)c1[nH]c2nc(SC)nc(NC)c2c1N
2. CCOc1ccc(NC(=O)C2=C(C)NC(C)=C(C(=O)Nc3ccc(OCC)cc3)C2c2ccc([N+](=O)[O-])cc2)cc1
3. O=C(CCC(=O)CC(O)(C(F)(F)F)C(F)(F)F)CC(O)(C(F)(F)F)C(F)(F)F
4. Cc1ccc(/C=N/NS(=O)(=O)c2ccccc2)cc1C
5. COc1cccc(N2C(Cl)C(=O)C2c2c[nH]c3ccccc23)c1 (stereo unspecified)
6. O=P1(c2ccccc2)c2ccccc2-c2ccccc21

Return:
> 100 µM (inactive)
> 100 µM (inactive)
> 100 µM (inactive)
> 100 µM (inactive)
> 100 µM (inactive)
> 100 µM (inactive)
